Values from patent US12428394B2

Target: JAK2 (Homo sapiens)
Construct: purchased Eurofins
Sequence (O60674 whole entry): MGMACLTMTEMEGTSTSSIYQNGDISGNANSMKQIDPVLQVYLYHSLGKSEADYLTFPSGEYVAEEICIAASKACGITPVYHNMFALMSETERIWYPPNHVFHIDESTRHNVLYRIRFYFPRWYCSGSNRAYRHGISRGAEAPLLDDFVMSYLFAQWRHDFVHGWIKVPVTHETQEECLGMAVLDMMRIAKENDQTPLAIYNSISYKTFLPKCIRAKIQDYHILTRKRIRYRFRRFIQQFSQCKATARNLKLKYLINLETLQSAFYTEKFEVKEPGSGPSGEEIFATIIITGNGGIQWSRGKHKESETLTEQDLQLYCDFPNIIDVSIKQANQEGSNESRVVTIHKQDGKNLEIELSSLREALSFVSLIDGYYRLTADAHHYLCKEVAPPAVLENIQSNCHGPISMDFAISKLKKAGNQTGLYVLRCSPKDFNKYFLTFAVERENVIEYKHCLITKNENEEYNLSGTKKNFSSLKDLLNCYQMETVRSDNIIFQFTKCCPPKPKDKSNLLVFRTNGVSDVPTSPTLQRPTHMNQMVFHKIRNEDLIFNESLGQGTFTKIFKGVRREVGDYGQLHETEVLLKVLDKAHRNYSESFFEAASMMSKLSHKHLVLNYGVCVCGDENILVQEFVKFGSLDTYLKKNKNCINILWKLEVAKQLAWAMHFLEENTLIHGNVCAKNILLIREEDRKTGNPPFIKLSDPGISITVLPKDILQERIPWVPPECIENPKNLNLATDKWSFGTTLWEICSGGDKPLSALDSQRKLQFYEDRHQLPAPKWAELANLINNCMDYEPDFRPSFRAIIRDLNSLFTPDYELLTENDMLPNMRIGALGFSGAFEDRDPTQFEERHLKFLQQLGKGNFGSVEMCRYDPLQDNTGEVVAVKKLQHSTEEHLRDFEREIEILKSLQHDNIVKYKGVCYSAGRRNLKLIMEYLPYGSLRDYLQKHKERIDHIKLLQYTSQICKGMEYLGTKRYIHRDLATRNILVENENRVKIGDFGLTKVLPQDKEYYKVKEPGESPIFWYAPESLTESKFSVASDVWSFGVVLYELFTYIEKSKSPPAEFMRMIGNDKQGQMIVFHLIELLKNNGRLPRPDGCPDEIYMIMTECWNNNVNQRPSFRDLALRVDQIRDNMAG
Assay: In vitro kinase activity experiment, JAK2
Format: biochemical
Settings: inhibition rate of enzyme at 500 nM; measured by Eurofins
result_type: Kinase activity @ 500 nM (%) JAK2
Just the number please, in %, no unit attached.

Some molecules with recorded Kinase activity @ 500 nM (%) JAK2:
>>> print(df.to_string())
                                   molecule        tested_target  value
0  CC(C)n1cc(-c2nc(Nc3ccc(N4CCN(C5CCN(C)CC5)CC4)cc3)ncc2F)cn1  JAK2 (Homo sapiens)     25
1  Cc1cnc(Nc2ccc(CCNC(=O)CCCl)cc2)nc1-c1cnn(C(C)C)c1  JAK2 (Homo sapiens)     20
2  CCCn1cc(-c2nc(Nc3ccc(N4CCN(CC)CC4)cc3F)ncc2F)cn1  JAK2 (Homo sapiens)     30
3  COc1cc(Nc2ncc(F)c(-c3cnn(C(C)C)c3)n2)ccc1N1CCC(N(C)C)CC1  JAK2 (Homo sapiens)     98

Alright, here's another molecule for you.
// Kinase activity @ 500 nM (%) JAK2 value for Cc1cnc(Nc2ccc(CCNC(=O)CCl)cc2)nc1-c1cnn(C(C)C)c1 : 37

----------
Recorded below: IC50, system FLT3 (Homo sapiens, UniProt P36888).

                         compound_structure                        tested_target  value
0  Cc1cnc(Nc2ccc(N3CCC(N(C)CCO)CC3)c(F)c2)nc1-c1cnn(C(C)C)c1  FLT3 (Homo sapiens, UniProt P36888)   4 nM

Alright, here's another compound for you.
Value (IC50, FLT3 (Homo sapiens, UniProt P36888)) for record Cc1cnc(Nc2ccc(NS(=O)(=O)c3ccc(C(F)(F)F)cc3)c(F)c2)nc1-c1cnn(C(C)C)c1 = 15 nM

----------
pIC50 values for the compounds below.
Tested on: SET-2 cells (JAK2 V617F)
Assay: Inhibition of cell proliferation by MTT experiment, SET-2
Format: cell-based
Settings: Homo sapiens, SET-2; MTT, 72 h; read-out: IC50 value on cell proliferation inhibition, SET-2 (V617F)
pIC50: −log10 of the molar value.

>>> df
                         compound_structure  result_type         value
0  CCN(CCN1CCOCC1)C1CCN(c2ccc(Nc3ncc(C)c(-c4cnn(C(C)C)c4)n3)cc2F)CC1        pIC50  6.00 to 7.00
1  Cc1cnc(Nc2ccc(S(=O)(=O)NC3CC3)cc2)nc1-c1cnn(C(C)C)c1        pIC50  6.00 to 7.00
2  CCCN1CCC(n2cc(-c3nc(Nc4ccc(N5CCN(C)CC5)cc4)ncc3F)cn2)CC1        pIC50        < 6.00
3  Cc1cnc(Nc2ccc(N3CCC4(CC3)CN(C3CCCC3)C4)c(F)c2)nc1-c1cnn(C(C)C)c1        pIC50  6.00 to 7.00
4  COc1cc(Nc2ncc(F)c(-c3cnn(C(C)C)c3)n2)ccc1N1CCN(C)CC1        pIC50        < 6.00

// pIC50 value for CCCCN(C)C1CCN(c2ccc(Nc3ncc(C)c(-c4cnn(C(C)C)c4)n3)cc2F)CC1 : < 6.00

// pIC50 value for Cc1cnc(Nc2ccc(NC(=O)[C@H]3CCCN3CC3CC3)c(F)c2)nc1-c1cnn(C(C)C)c1 : 6.00 to 7.00

// pIC50 value for Cc1cnc(Nc2ccc(N3CCC(N(C)CCCCO)CC3)c(F)c2)nc1-c1cnn(C(C)C)c1 : 6.00 to 7.00

----------
Tested on: SET-2 cells (JAK2 V617F)
Assay: Inhibition of cell proliferation by MTT experiment, SET-2
Type: cell-based
Settings: Homo sapiens, SET-2; MTT, 72 h; read-out: IC50 value on cell proliferation inhibition, SET-2 (V617F)
pIC50: −log10 of the molar value.
result_type: pIC50

>>> print(df.to_string())
                                   compound         value
0  Cc1cnc(Nc2ccc(NC(=O)[C@H]3C[C@H](F)CN3)c(F)c2)nc1-c1cnn(C(C)C)c1 [CLJ-97]  6.00 to 7.00
1  CCN1CCN(c2ccc(Nc3ncc(F)c(-c4cnn(C5CCCC5)c4)n3)cc2F)CC1 [CLJ-17]  6.00 to 7.00
2  Cc1cnc(Nc2ccc(CCNC(=O)CCCN(C)C)cc2)nc1-c1cnn(C(C)C)c1 [CLJ-84]  6.00 to 7.00
3  CCCCCCN(C)C1CCN(c2ccc(Nc3ncc(C)c(-c4cnn(C(C)C)c4)n3)cc2F)CC1 [CLJ-51]  6.00 to 7.00
4  CC(C)n1cc(-c2nc(Nc3ccc(N4CCN(C5CCN(C)CC5)CC4)cc3)ncc2F)cn1 [CLJ-31]        < 6.00
5  Cc1cnc(Nc2ccc(NC(=O)[C@H]3CCCN3)c(F)c2)nc1-c1cnn(C(C)C)c1 [CLJ-93]  6.00 to 7.00
6  Cc1cnc(Nc2ccc(NC(=O)CN3CCS(=O)(=O)CC3)c(F)c2)nc1-c1cnn(C(C)C)c1 [CLJ-98]  6.00 to 7.00

Alright, here's another compound for you.
// pIC50 value for CCN1CCN(c2ccc(Nc3ncc(C)c(-c4cnn(C(C)C)c4)n3)cc2F)CC1 [CLJ-30] : 6.00 to 7.00

----------
Molecular target: JAK2 (Homo sapiens)
Construct: purchased Eurofins
Assay: In vitro kinase activity experiment, JAK2
Format: biochemical
Conditions: inhibition rate of enzyme at 500 nM; measured by Eurofins
Please note: Kinase activity @ 500 nM (%) JAK2 exactly at 90% is Criterion not met. Only values below 90% get Criterion met.

In the record for Cc1cnc(Nc2ccc(N3CCC(N(C)CCN4CCCCC4)CC3)c(F)c2)nc1-c1cnn(C(C)C)c1 , is Kinase activity @ 500 nM (%) JAK2 less than 90%?
Criterion met

In the record for COc1cc(Nc2ncc(F)c(-c3cnn(C(C)C)c3)n2)ccc1N1CCN(C)CC1 , is Kinase activity @ 500 nM (%) JAK2 less than 90%?
Criterion met

In the record for CCN1CCN(c2ccc(Nc3ncc(F)c(-c4cnn(C(C)C)c4)n3)cc2F)CC1 , is Kinase activity @ 500 nM (%) JAK2 less than 90%?
Criterion met

In the record for CCCN1CCN(CCN(C)C2CCN(c3ccc(Nc4ncc(C)c(-c5cnn(C(C)C)c5)n4)cc3F)CC2)CC1 , is Kinase activity @ 500 nM (%) JAK2 less than 90%?
Criterion not met

In the record for Cc1cnc(Nc2ccc(N3CCC(N(C)CC4CC4)CC3)c(F)c2)nc1-c1cnn(C(C)C)c1 , is Kinase activity @ 500 nM (%) JAK2 less than 90%?
Criterion not met

In the record for Cc1cnc(Nc2ccc(N3CCC(NCCO)CC3)c(F)c2)nc1-c1cnn(C(C)C)c1 , is Kinase activity @ 500 nM (%) JAK2 less than 90%?
Criterion not met

----------
inhibition at 0.5 µM values for the molecules below.
Biological target: FLT3 (Homo sapiens, UniProt P36888)
Construct: purchased Eurofins
Sequence (P36888 27-993): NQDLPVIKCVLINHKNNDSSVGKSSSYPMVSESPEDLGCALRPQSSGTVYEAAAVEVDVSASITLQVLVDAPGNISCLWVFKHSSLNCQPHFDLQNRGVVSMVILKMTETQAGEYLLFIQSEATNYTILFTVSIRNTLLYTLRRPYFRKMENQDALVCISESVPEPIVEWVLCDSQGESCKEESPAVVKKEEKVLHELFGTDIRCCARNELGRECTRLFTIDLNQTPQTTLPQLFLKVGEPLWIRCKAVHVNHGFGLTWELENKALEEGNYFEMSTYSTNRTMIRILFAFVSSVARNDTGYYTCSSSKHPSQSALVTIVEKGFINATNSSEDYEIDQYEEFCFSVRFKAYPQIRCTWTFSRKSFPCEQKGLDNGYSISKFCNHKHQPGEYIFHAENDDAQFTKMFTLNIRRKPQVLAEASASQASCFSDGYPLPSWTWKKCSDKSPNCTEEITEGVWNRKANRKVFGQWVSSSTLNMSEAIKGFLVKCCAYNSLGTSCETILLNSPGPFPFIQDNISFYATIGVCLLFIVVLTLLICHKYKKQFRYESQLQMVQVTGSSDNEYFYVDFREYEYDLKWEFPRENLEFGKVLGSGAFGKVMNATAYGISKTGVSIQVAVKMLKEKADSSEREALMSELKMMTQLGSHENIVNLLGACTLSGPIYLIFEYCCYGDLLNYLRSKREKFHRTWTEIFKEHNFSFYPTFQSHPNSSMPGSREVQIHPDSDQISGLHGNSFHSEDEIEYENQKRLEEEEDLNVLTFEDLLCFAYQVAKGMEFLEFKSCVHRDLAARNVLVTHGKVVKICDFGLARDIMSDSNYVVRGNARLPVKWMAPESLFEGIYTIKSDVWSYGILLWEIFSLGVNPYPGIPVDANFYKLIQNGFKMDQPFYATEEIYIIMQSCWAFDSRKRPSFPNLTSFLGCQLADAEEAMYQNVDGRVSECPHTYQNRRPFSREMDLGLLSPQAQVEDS
Experiment: In vitro kinase activity experiment, FLT3
Format: biochemical
Settings: 40 min; inhibition rate of enzyme at 500 nM; measured by Eurofins; read-out: Kinase activity @ 500 nM (%) FLT3
Just the number please, in %, no unit attached.

>>> df
                                   molecule           result_type  units_label  value
0  CCN1CCN(c2ccc(Nc3ncc(F)c(-c4cnn(C5CCCC5)c4)n3)cc2F)CC1  inhibition at 0.5 µM            %     94
1  CCCn1cc(-c2nc(Nc3cc(CN4CCCC(C)C4)c(F)cn3)ncc2F)cn1 (centres unmarked)  inhibition at 0.5 µM            %     28
2  Cc1cnc(Nc2ccc(N3CCC4(CC3)CN(C3CCCC3)C4)c(F)c2)nc1-c1cnn(C(C)C)c1  inhibition at 0.5 µM            %     67

// inhibition at 0.5 µM value for Cc1cnc(Nc2ccc(NC(=O)CN3CCS(=O)(=O)CC3)c(F)c2)nc1-c1cnn(C(C)C)c1 : 95

// inhibition at 0.5 µM value for CCN1CCN(c2ccc(Nc3ncc(F)c(-c4ccc(CN5CCCC5)o4)n3)nc2)CC1 : 25

// inhibition at 0.5 µM value for CCS(=O)(=O)c1nn(C(C)C)cc1-c1nc(Nc2ccc(N3CCC(N(C)CCO)CC3)c(F)c2)ncc1C : 98

// inhibition at 0.5 µM value for CCOCCN(C)C1CCN(c2ccc(Nc3ncc(C)c(-c4cnn(C(C)C)c4)n3)cc2F)CC1 : 96

// inhibition at 0.5 µM value for CN1CCN(c2ccc(Nc3ncc(F)c(-c4cnn(C5CCCC5)c4)n3)cc2F)CC1 : 95

// inhibition at 0.5 µM value for Cc1cnc(Nc2ccc(N3CCC(N(C)CCCO)CC3)c(F)c2)nc1-c1cnn(C(C)C)c1 : 98

// inhibition at 0.5 µM value for Cc1cnc(Nc2ccc(N3CCC(N(C)CC4CCCO4)CC3)c(F)c2)nc1-c1cnn(C(C)C)c1 (centres unmarked) : 98

// inhibition at 0.5 µM value for Cc1cnc(Nc2ccc(CCNC(=O)CCl)cc2)nc1-c1cnn(C(C)C)c1 : 45

// inhibition at 0.5 µM value for Cc1cnc(Nc2ccc(CCNC(=O)/C=C/C(=O)c3ccccc3)cc2)nc1-c1cnn(C(C)C)c1 : 12
